# study-target: DLG2_3, Q15700
# experiment-description: holdup assay
# Design: key: below the threshold = too weak to quantify, mostly under pKd 3.1 to 4
# protocol-conditions: plain residues with an end cap or a label only (N-terminal biotin on a linker: ttds)

[
  {
    "binder": "GQDSREETQL [KCNT2, Q6UVM3]",
    "pKd": "below the threshold"
  },
  {
    "binder": "IYVPEAQTRL [DLGAP4, Q9Y2H0]",
    "pKd": "below the threshold"
  },
  {
    "binder": "IDNDTESTAL [ARHGAP17, Q68EM7]",
    "pKd": "below the threshold"
  }
]
